- Tested on: CAL-51
- ASSAY DETAILS: drug sensitivity score (DSS), CellTiter-Glo (DSS (AUC-based score)); higher = stronger drug effect (viability inhibition or cytotoxicity); extreme values may be limits of the assay
- EXPERIMENTAL CONDITIONS: incubation time: 72 h
I'd be grateful if you could share measured drug sensitivity score for these entries.
Answers are plain numbers.

Here are 5 compounds together with their reported answers.
[[record]]
compound = "CS(=O)(=O)c1ccc(C2=C(c3ccccc3)C(=O)OC2)cc1"
measured = 0.464

[[record]]
compound = "CN[C@@H]1C[C@H]2O[C@@](C)([C@@H]1OC)n1c3ccccc3c3c4c(c5c6ccccc6n2c5c31)C(=O)N[C@H]4O"
measured = 23.9

[[record]]
compound = "CCC1(c2ccc(N)cc2)CCC(=O)NC1=O (stereo not given) [Aminoglutethimide]"
measured = 0

[[record]]
compound = "C#Cc1cccc(Nc2ncnc3cc(OCCOC)c(OCCOC)cc23)c1"
measured = 2.18

[[record]]
compound = "CNCc1ccc(-c2[nH]c3cc(F)cc4c3c2CCNC4=O)cc1"
measured = 0


Give drug sensitivity score for each listed item.
1. CCCCCCCCCCCCCCCCCCOP(=O)([O-])OC1CC[N+](C)(C)CC1
2. Cc1ccc(-n2nc(C(C)(C)C)cc2NC(=O)Nc2ccc(OCCN3CCOCC3)c3ccccc23)cc1
3. Cn1c(Nc2ccc(C(F)(F)F)cc2)nc2cc(Oc3ccnc(-c4ncc(C(F)(F)F)[nH]4)c3)ccc21
4. O=C(CCCCCCC(=O)Nc1ccc([C@H]2O[C@@H](CSc3nc(-c4ccccc4)c(-c4ccccc4)o3)C[C@@H](c3ccc(CO)cc3)O2)cc1)NO

output:
1. 0
2. 0
3. 0
4. 5.04

input: Give its drug sensitivity score value. Item: O=C(O)c1ccc(-c2c[nH]c3ncc(-c4ccccc4)cc23)cc1C1CCCC1
output: 0

---

I'd be grateful if you could share measured normalised response for these entries.
- Tested on: CAL-148
- ASSAY DETAILS: normalised response (% of control), CellTox Green; higher = less cell death (100 = DMSO, 0 = benzethonium chloride kill control)
- EXPERIMENTAL CONDITIONS: incubation time: 72 h
Answers are plain numbers, in %.

Here are 5 compounds together with their reported answers.
[[record]]
compound = "CCCCCCCCCCCCCCCCCCOP(=O)([O-])OC1CC[N+](C)(C)CC1 [Perifosine] (25 nM)"
measured = 103

[[record]]
compound = "O=C(O)c1ccc(-c2c[nH]c3ncc(-c4ccccc4)cc23)cc1C1CCCC1 (10000 nM)"
measured = 91.6

[[record]]
compound = "N.N.[Cl][Pt][Cl] [Cisplatin] (100 nM)"
measured = 105

[[record]]
compound = "COc1cc2ncnc(Nc3ccc(F)c(Cl)c3)c2cc1NC(=O)/C=C/CN1CCCCC1 [Dacomitinib] (100 nM)"
measured = 97.8

[[record]]
compound = "CCC(C)(C)C(=O)O[C@H]1C[C@@H](C)C=C2C=C[C@H](C)[C@H](CC[C@@H]3C[C@@H](O)CC(=O)O3)[C@H]21 [Simvastatin] (1000 nM)"
measured = 102


Give normalised response for each listed item.
1. CC(C)Cn1cnc2c(N)nc3ccccc3c21 [Imiquimod] (2500 nM)
2. C[C@]12CC[C@@H]3c4ccc(O)cc4C[C@@H](CCCCCCCCC[S+]([O-])CCCC(F)(F)C(F)(F)F)[C@H]3[C@@H]1CC[C@@H]2O (stereo not given in full) [Fulvestrant] (1000 nM)
3. COc1cc([C@@H]2c3cc4c(cc3[C@@H](O[C@@H]3O[C@@H]5CO[C@@H](C)O[C@H]5[C@H](O)[C@H]3O)[C@H]3COC(=O)[C@H]23)OCO4)cc(OC)c1O [Etoposide] (10000 nM)
4. CC(=O)Nc1ccc(C(=O)Nc2ccccc2N)cc1 [Tacedinaline] (100 nM)

output:
1: 100; 2: 100; 3: 49.6; 4: 105

Give normalised response for each listed item.
1. C=C(c1ccc(C(=O)O)cc1)c1cc2c(cc1C)C(C)(C)CCC2(C)C [Bexarotene] (1000 nM)
2. CNCc1ccc(-c2[nH]c3cc(F)cc4c3c2CCNC4=O)cc1 [Rucaparib] (100 nM)
3. COc1cc2nccc(Oc3ccc(NC(=O)C4(C(=O)Nc5ccc(F)cc5)CC4)cc3)c2cc1OC [Cabozantinib] (100 nM)
4. CN[C@@H]1C[C@H]2O[C@@](C)([C@@H]1OC)n1c3ccccc3c3c4c(c5c6ccccc6n2c5c31)C(=O)N[C@H]4O [UCN-01] (100 nM)
5. N#CCNC(=O)c1ccc(-c2ccnc(Nc3ccc(N4CCOCC4)cc3)n2)cc1 [Momelotinib] (1000 nM)
6. CCC(C)(C)C(=O)O[C@H]1C[C@@H](C)C=C2C=C[C@H](C)[C@H](CC[C@@H]3C[C@@H](O)CC(=O)O3)[C@H]21 [Simvastatin] (100 nM)

output:
75.7
97.4
102
86
98.7
99.7

---

I'd be grateful if you could share measured normalised response for these entries.
- Test system: MCF-10A
- ASSAY DETAILS: normalised response (% of control), CellTox Green; higher = less cell death (100 = DMSO, 0 = benzethonium chloride kill control)
- EXPERIMENTAL CONDITIONS: incubation time: 72 h
One number for each entry, in %.

[[record]]
compound = "Cc1ccc(C(=O)Nc2ccc(CN3CCN(C)CC3)c(C(F)(F)F)c2)cc1C#Cc1cnc2cccnn12 [Ponatinib] (10 nM)"
unit_descriptor = "%"
measured = 99.1

[[record]]
compound = "Oc1nc(-c2ccc(C(F)(F)F)cc2)nc2c1CSCC2 [XAV-939] (100 nM)"
unit_descriptor = "%"
measured = 95.1

[[record]]
compound = "C[C@]12CC[C@@H]3c4ccc(O)cc4C[C@@H](CCCCCCCCC[S+]([O-])CCCC(F)(F)C(F)(F)F)[C@H]3[C@@H]1CC[C@@H]2O (some centres undefined) [Fulvestrant] (100 nM)"
unit_descriptor = "%"
measured = 105


Give normalised response for each listed item.
1. Cc1ccc(C(=O)Nc2ccc(CN3CCN(C)CC3)c(C(F)(F)F)c2)cc1C#Cc1cnc2cccnn12 [Ponatinib] (100 nM)
2. Cc1ccc(C(=O)Nc2ccc(CN3CCN(C)CC3)c(C(F)(F)F)c2)cc1C#Cc1cnc2cccnn12 [Ponatinib] (1000 nM)
3. CCC(C)(C)C(=O)O[C@H]1C[C@@H](C)C=C2C=C[C@H](C)[C@H](CC[C@@H]3C[C@@H](O)CC(=O)O3)[C@H]21 [Simvastatin] (10000 nM)

output:
1: 72.1; 2: 97; 3: 23.2

---

- Test system: CAL-51
- ASSAY DETAILS: normalised response (% of control), CellTox Green; higher = less cell death (100 = DMSO, 0 = benzethonium chloride kill control)
- EXPERIMENTAL CONDITIONS: incubation time: 72 h
I'd be grateful if you could share measured normalised response for these entries.
Numbers only, in %.

Here are 2 molecules together with their reported answers.
[[record]]
molecule = "Cc1ccc(C(=O)N(CCCN)[C@@H](c2oc3cc(Cl)ccc3c(=O)c2Cc2ccccc2)C(C)C)cc1 (1 nM)"
tested_target = "CAL-51"
unit_descriptor = "%"
measured = 74.1

[[record]]
molecule = "CCC1(c2ccc(N)cc2)CCC(=O)NC1=O (centres undefined) [Aminoglutethimide] (100 nM)"
tested_target = "CAL-51"
unit_descriptor = "%"
measured = 113


Give normalised response for each listed item.
1. Cc1ccc(C(=O)Nc2ccc(CN3CCN(C)CC3)c(C(F)(F)F)c2)cc1C#Cc1cnc2cccnn12 [Ponatinib] (10 nM)
2. Cn1c(CCCC(=O)O)nc2cc(N(CCCl)CCCl)ccc21 [Bendamustine] (100 nM)

output:
[99.5, 111]

Give normalised response for each listed item.
1. CN(C)/N=N/c1[nH]cnc1C(N)=O [Dacarbazine] (1000 nM)
2. O=C(O)c1ccc(-c2c[nH]c3ncc(-c4ccccc4)cc23)cc1C1CCCC1 (1000 nM)
3. C[C@]12CC[C@@H]3c4ccc(O)cc4C[C@@H](CCCCCCCCC[S+]([O-])CCCC(F)(F)C(F)(F)F)[C@H]3[C@@H]1CC[C@@H]2O (some centres undefined) [Fulvestrant] (10 nM)
4. C[C@]12CC[C@@H]3c4ccc(O)cc4C[C@@H](CCCCCCCCC[S+]([O-])CCCC(F)(F)C(F)(F)F)[C@H]3[C@@H]1CC[C@@H]2O (some centres undefined) [Fulvestrant] (100 nM)
5. CO[C@H]1/C=C\C=C(/C)C(=O)NC2=CC(=O)C(NCCN(C)C)=C(C[C@@H](C)C[C@H](OC)[C@H](O)[C@@H](C)/C=C(\C)[C@@H]1OC(N)=O)C2=O [Alvespimycin] (10 nM)
6. CCC(C)(C)C(=O)O[C@H]1C[C@@H](C)C=C2C=C[C@H](C)[C@H](CC[C@@H]3C[C@@H](O)CC(=O)O3)[C@H]21 [Simvastatin] (1000 nM)

output:
105
93.6
109
113
110
111

Give normalised response for each listed item.
1. O=C(O)c1ccc(-c2c[nH]c3ncc(-c4ccccc4)cc23)cc1C1CCCC1 (10000 nM)
2. Cc1ccc(C(=O)N(CCCN)[C@@H](c2oc3cc(Cl)ccc3c(=O)c2Cc2ccccc2)C(C)C)cc1 (10 nM)
3. N[C@@H](CSC(c1ccccc1)(c1ccccc1)c1ccccc1)C(=O)O [S-trityl-L-cysteine] (400 nM)
4. CCC1(c2ccc(N)cc2)CCC(=O)NC1=O (centres undefined) [Aminoglutethimide] (1000 nM)

output:
1: 63.4; 2: 108; 3: 110; 4: 83.5
